Where these numbers come from: ChEMBL document CHEMBL2151015

# Assay text: AUC (0 to t) in po dosed Sprague-Dawley rat pre-dosed with ABT administered 2 hrs […] measured up to 24 hrs
# Type: ADME, organism-based
# Parameters: time < 24 hr, route oral
# Condition summary: plasma
Quantity name: AUC(0-t) at 24 h (µg·h/mL)
Report only the number, with the unit µg·h/mL understood.

response.value for CCCSc1ncccc1C(=O)NC1CCCCC1 (field: AUC(0-t) at 24 h) = 2.51

###

Each record here notes measured solubility at 24 h.
# Assay text: Aqueous solubility of the compound after 24 hrs by LC-UV analysis at pH 7.4
# Format: physicochemical
# Condition summary: aqueous medium
The answer is to be given in µM; state only the numeric part.

Known solubility at 24 h results, listed for orientation:
| Compound | solubility at 24 h [µM] |
| --- | --- |
| CCCSc1ncccc1C(=O)NC1CCCCC1 | 82 |
| CCCSc1nc(N2CCC[C@@H](CC(=O)O)C2)ccc1C(=O)NC1CCCCC1 [AZD-4017] | 144 |

In the following, a different compound is considered.
Looking up O=S(=O)(Cc1c(F)cccc1F)N1CCN(c2ncccc2C(F)(F)F)CC1 , I see its solubility at 24 h listed as 2

###

# Assay text: Fraction unbound in human plasma after 18 to 19 hrs by equilibrium dialysis
# Type: ADME, cell-free
Quantity name: fraction unbound
Lab note: jot the number down without any unit.

Per the records, this molecule ( CCCSc1nc(N2CCC[C@@H](CC(=O)O)C2)ccc1C(=O)NC1CCCCC1 [AZD-4017] ) has fraction unbound equal to 0.008

###

# Target under test: 11-beta-hydroxysteroid dehydrogenase type 2 (Homo sapiens, UniProt P80365)
# Sequence (P80365 whole entry): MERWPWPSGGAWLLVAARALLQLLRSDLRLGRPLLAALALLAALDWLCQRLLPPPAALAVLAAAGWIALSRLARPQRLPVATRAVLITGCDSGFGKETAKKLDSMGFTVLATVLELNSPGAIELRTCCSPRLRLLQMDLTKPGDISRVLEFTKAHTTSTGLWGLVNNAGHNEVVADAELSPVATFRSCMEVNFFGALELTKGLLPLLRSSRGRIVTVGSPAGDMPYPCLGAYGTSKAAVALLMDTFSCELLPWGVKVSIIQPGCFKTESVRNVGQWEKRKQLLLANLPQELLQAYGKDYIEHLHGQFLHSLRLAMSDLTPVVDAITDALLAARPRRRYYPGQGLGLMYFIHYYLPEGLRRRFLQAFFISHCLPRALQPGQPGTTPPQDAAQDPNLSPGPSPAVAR
# Assay text: Inhibition of recombinant 11betaHSD2 using cortisol as substrate after 40 mins by fluorescence spectrophotometry
pIC50: −log10 of the molar value.
Quantity name: pIC50

Documented pIC50 of CCCSc1nc(N2CCC[C@@H](CC(=O)O)C2)ccc1C(=O)NC1CCCCC1 : < 4.52

###

# Assay text: Oral bioavailability in rat
# Assay type: ADME, organism-based
# Condition summary: in vivo
Quantity name: bioavailability (%)
Number only, in %; omit the unit.

Known results for molecules:
| Molecule | Quantity name | Obs value |
| --- | --- | --- |
| CCCSc1ncccc1C(=O)N(C)C1CCCCC1 | bioavailability | 0 |
| CCCN(C)c1nc(N2CCC[C@@H](CC(=O)O)C2)ccc1C(=O)NC1CCCCC1 | bioavailability | 39 |
| CCCSc1nc(N2CCCC(C(=O)O)C2)ccc1C(=O)NC1CCCCC1 (stereo not given) | bioavailability | 45 |
| CCCSc1ncccc1C(=O)N[C@@H]1[C@@H]2CC3C[C@H]1C[C@@](O)(C3)C2 | bioavailability | 11 |
| CCCSc1ncccc1C(=O)N1CCCC1c1ccncc1 (stereo not given) | bioavailability | 0 |

Just so you know, measured bioavailability for CCCSc1ncccc1C(=O)N(C)[C@@H]1[C@@H]2CC3C[C@H]1C[C@@](O)(C3)C2 came out at 0

###

# Assay text: Octanol-buffer partition coefficient, log D of the compound after 30 mins by shake flask method at pH 7.4
# Condition summary: octanol/buffer
The entries below are paired with their reported logD at 0.5 h.
I'd appreciate a reply containing only the number, no unit.

Here is how some compounds turned out for logD at 0.5 h.
| Compound | logD at 0.5 h |
| --- | --- |
| CCCNc1nc(N2CCC[C@@H](CC(=O)O)C2)ccc1C(=O)NC1CCCCC1 | 2.3 |
| CCCSc1ncccc1C(=O)N[C@@H]1[C@@H]2CC3C[C@H]1C[C@@](O)(C3)C2 | 2.3 |

Entry CCCSc1nc(Oc2ccc(CC(=O)O)cc2)ccc1C(=O)NC1CCCCC1 , logD at 0.5 h reported as 1.8

Summary for this compound, CCCSc1nc(N2CCC(CC(=O)O)CC2)ccc1C(=O)NC1CCCCC1 : logD at 0.5 h is 2

// recorded logD at 0.5 h for CCCSc1nc(N2CCCCC2C(=O)O)ccc1C(=O)NC1CCCCC1 (stereo not given) : 1.4

Quick note, logD at 0.5 h for CCCCc1nc(N2CCC[C@@H](CC(=O)O)C2)ccc1C(=O)NC1CCCCC1 landed at 1.6

CCCSc1nc(N2CCC[C@H](CC(=O)O)C2)ccc1C(=O)NC1CCCCC1 has a reported logD at 0.5 h of 2.2

Consider CCCSc1nc(Oc2cccc(CCC(=O)O)c2)ccc1C(=O)NC1CCCCC1 . Its measured logD at 0.5 h is 1.7

Query CCCSc1ncccc1C(=O)N(C)C1CCOCC1 yields logD at 0.5 h of 1.6

So, CCCSc1ncccc1C(=O)N(C)C1CCCCC1 ? Its logD at 0.5 h was 3.4

What the record says about O=S(=O)(Cc1c(F)cccc1F)N1CCN(c2ncccc2C(F)(F)F)CC1 : logD at 0.5 h is 3.9

Notebook: CCCSc1nc(N2CCCC(C(=O)O)C2)ccc1C(=O)NC1CCCCC1 (stereo not given) , logD at 0.5 h read as 1.7

// logD at 0.5 h value for CCCSc1nc(N2CCC[C@@H](CC(=O)O)C2)ccc1C(=O)NC1CCCCC1 : 2.2

Measured logD at 0.5 h of CCCOc1nc(N2CCC[C@@H](CC(=O)O)C2)ccc1C(=O)NC1CCCCC1 : 2.8

###

Below, each entry is listed alongside its reported hepatocyte CLint.
# Assay text: Intrinsic clearance in rat hepatocytes assessed per 10^6 cells

| Smiles data | Obs value |
| --- | --- |
| CCCSc1nc(N[C@H]2CC[C@H](C(=O)O)CC2)ccc1C(=O)NC1CCCCC1 | < 2 µL/min/1e6 cells |
| CCCSc1nc(N2CCC(C(=O)O)CC2)ccc1C(=O)NC1CCCCC1 | < 2 µL/min/1e6 cells |

# evaluate next
Briefly, hepatocyte CLint measured for CCCSc1nc(N2CCC[C@@H](CC(=O)O)C2)ccc1C(=O)NC1CCCCC1 : < 2 µL/min/1e6 cells

###

Below is a list of entries, each paired with its recorded bioavailability value.
# Assay text: Oral bioavailability in rat
# Assay type: ADME, organism-based
# Condition summary: in vivo
Express your answer in %, writing the number without its unit.

Below, each entry is followed by its recorded bioavailability result.
| Smiles data | Obs value |
| --- | --- |
| CCCCc1nc(N2CCC[C@@H](CC(=O)O)C2)ccc1C(=O)NC1CCCCC1 | 57 |
| CCCSc1ncccc1C(=O)N(C)C1CCOCC1 | 0 |
| O=S(=O)(Cc1c(F)cccc1F)N1CCN(c2ncccc2C(F)(F)F)CC1 | 0 |

GET /value?item= CCCSc1nc(N2CCC[C@H](CC(=O)O)C2)ccc1C(=O)NC1CCCCC1 &field=bioavailability returns 79

Value of measured bioavailability for the entry CCCSc1ncccc1C(=O)N[C@H]1CC[C@@H](C(=O)O)CC1 : 81

bioavailability in this record for CCCNc1nc(N2CCC[C@@H](CC(=O)O)C2)ccc1C(=O)NC1CCCCC1 : 72

###

# Assay text: Oral bioavailability in rat
# Format: ADME, organism-based
# Condition summary: in vivo
Quantity name: bioavailability

Some solved cases for reference:
| Molecule | Quantity name | Obs value |
| --- | --- | --- |
| CCCSc1nc(N2CCC(C(=O)O)CC2)ccc1C(=O)NC1CCCCC1 | bioavailability | > 100% |
| CCCSc1nc(N[C@H]2CC[C@H](C(=O)O)CC2)ccc1C(=O)NC1CCCCC1 | bioavailability | > 100% |

Query molecule follows.
# bioavailability of CCCSc1nc(N2CCC[C@@H](CC(=O)O)C2)ccc1C(=O)NC1CCCCC1 [AZD-4017] = > 100%
